Kindly state IC50 for each of the entries shown.
- experimental_system: mouse semaphorin 3A (Sema3A) (Mus musculus)
- Sequence (O08665 21-772): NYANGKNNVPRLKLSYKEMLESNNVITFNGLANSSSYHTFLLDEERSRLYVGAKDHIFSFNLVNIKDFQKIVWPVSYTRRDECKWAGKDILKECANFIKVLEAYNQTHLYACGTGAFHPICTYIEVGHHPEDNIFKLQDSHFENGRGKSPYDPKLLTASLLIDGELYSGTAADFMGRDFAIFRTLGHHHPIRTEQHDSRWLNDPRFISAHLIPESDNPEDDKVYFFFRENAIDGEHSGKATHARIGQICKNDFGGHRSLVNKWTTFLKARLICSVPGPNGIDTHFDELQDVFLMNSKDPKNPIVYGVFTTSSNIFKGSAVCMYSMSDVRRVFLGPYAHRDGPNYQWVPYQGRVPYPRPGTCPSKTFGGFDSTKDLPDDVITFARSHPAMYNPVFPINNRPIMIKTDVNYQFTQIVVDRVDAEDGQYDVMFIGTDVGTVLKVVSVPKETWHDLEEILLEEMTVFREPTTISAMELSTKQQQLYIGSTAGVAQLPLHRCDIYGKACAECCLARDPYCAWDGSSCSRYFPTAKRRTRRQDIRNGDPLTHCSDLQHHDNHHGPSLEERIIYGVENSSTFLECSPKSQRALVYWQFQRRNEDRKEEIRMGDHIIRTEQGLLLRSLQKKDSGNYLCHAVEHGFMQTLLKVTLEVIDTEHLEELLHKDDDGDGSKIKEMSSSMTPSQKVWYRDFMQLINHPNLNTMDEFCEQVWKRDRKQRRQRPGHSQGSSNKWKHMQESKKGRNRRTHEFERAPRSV
- assay_info: Suppression of growth cone collapse activity of Sema3A (chick embryo dorsal root ganglions)
- Format: cell-based
- condition_description: E7 chick embryo dorsal root ganglions; 2 units/ml Sema3A added 1 hour after compound; concentration where collapse rate = (A+B)/2; read-out: IC50 of inhibition of the growth cone collapse activity of Sema3A (converted)
- Method: A 96-well plate (Sumitomo Bakelite Co., ltd. ) pre-coated with polylysine was further coated with laminine (20 μg/ml of laminine, for 1 hour at room temperature). […]
Give just the number in nM; leave the unit off.

Query (compound): COCc1c(-c2cc3c(=O)c4cc(O)c(O)cc4oc3c(C(C)=O)c2C)oc2cc(O)c(O)c(C(=O)O)c2c1=O [SPF-3059-29] ; field requested: IC50
182

// query IC50 value for entry CC(=O)c1c(C)c(-c2cc(=O)c3c(C(=O)O)c(O)c(O)cc3o2)cc2c(=O)c3c(C(=O)O)c(O)c(O)cc3oc12 [SPF-3059-39]
182

// returns reported IC50 for input COCc1c(-c2cc3c(=O)c4c(C(=O)O)c(O)c(O)cc4oc3c(C(C)=O)c2C)oc2cc(O)c(O)c(C(=O)O)c2c1=O [SPF-3059-6]
169

Fill in: IC50 of CC(=O)c1c(C)c(C(=O)C2COc3cc(O)c(O)cc3C2=O)cc2c(=O)c3c(C(=O)O)c(O)c(O)cc3oc12 (stereo not shown) [SPF-3059-9] is ___
187

Item under review: CC(=O)c1cc2c(=O)c3c(C(=O)O)cc(O)cc3oc2c(C(C)=O)c1-c1coc2cc(O)c(O)c(C(=O)O)c2c1=O [SPF-3059-4] . Reported IC50?
3570

Name the reported IC50 value associated with the compound CC(=O)c1cc2c(=O)c3c(C(=O)O)cc(O)cc3oc2c(C(C)=O)c1-c1coc2cc(O)c(O)cc2c1=O [SPF-3059-25]
7750

Entry under review: CC(=O)c1c(C)c(-c2cc(=O)c3c(C(=O)O)cc(O)cc3o2)cc2c(=O)c3c(C(=O)O)c(O)c(O)cc3oc12 [SPF-3059-28] . Reported IC50?
3760

###

- assay_info: Solubility
- Format: physicochemical
- condition_description: methanol, DMSO
assay_metric: Solubility

>>> print(df.to_string())
                                   molecule  value_measured
0  CC(=O)c1cc2c(=O)c3c(C(=O)O)c(O)c(O)cc3oc2c(C(C)=O)c1-c1coc2cc(O)cc(C(=O)O)c2c1=O [SPF-3059-12]         Soluble
1  CC(=O)c1c(C)c(C(=O)C2COc3cc(O)c(O)c(C(=O)O)c3C2=O)cc2c(=O)c3cc(O)c(O)cc3oc12 (stereo not shown) [SPF-3059-3]         Soluble
2  CC(=O)c1cc(-c2c(C(C)=O)cc3c(=O)c4c(C(=O)O)c(O)c(O)cc4oc3c2C(C)=O)cc(C(=O)c2cc(O)c(O)cc2O)c1O [SPF-3059-27]         Soluble
3  COCc1c(-c2cc3c(=O)c4c(C(=O)O)c(O)c(O)cc4oc3c(C(C)=O)c2C)oc2cc(O)c(O)c(C(=O)O)c2c1=O [SPF-3059-6]         Soluble
4  CC(=O)c1c(C)c(C(=O)C2COc3cc(O)c(O)cc3C2=O)cc2c(=O)c3cc(O)c(O)cc3oc12 (stereo not shown) [SPF-3059-30]         Soluble
5  CC(=O)c1cc2c(=O)c3cc(O)c(O)cc3oc2c(C(C)=O)c1-c1coc2cc(O)c(O)cc2c1=O [SPF-3059-26]         Soluble

Then there is this molecule:
Find the recorded Solubility belonging to CC(=O)c1cc2c(=O)c3c(C(=O)O)cc(O)cc3oc2c(C(C)=O)c1-c1coc2cc(O)c(O)cc2c1=O [SPF-3059-25] and report it.
Soluble
